Assignment: determine reported pIC50 for the given compounds.
target: recombinant GST-ALK5 (residues 198-503) (Homo sapiens, UniProt P36897); construct: assays using recombinant GST-ALK5 (residues 198-503); GST (N); assay: Assay 2 (Alk5 Fluorescence Polarization Assay); conditions: rhodamine green-labelled ligand 1 nM, ALK5 10 nM, read-out: ALK5 receptor modulator activity (IC50)
Sequence (P36897 198-503): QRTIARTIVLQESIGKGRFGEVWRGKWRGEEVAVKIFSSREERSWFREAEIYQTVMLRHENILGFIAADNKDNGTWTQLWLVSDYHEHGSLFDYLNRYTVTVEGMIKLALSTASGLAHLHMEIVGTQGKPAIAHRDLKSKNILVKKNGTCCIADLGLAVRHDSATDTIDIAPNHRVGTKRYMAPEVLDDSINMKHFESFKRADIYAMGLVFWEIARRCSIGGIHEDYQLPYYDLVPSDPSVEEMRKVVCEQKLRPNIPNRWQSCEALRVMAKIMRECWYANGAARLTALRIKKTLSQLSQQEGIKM
Answer as the number alone; pIC50 is minus log10 of concentration in mol/L.

Tell me the measured pIC50 of CCN1C(=O)COc2ccc(-c3sc(N)nc3-c3cccc(C)n3)cc21 , please.
7.57

Query Cc1cccc(-c2nc(N)sc2-c2ccc3ncn(C)c3c2)n1 next
7.80

====

tested on: HepG2 cells stably transfected with the PAI-1 promoter linked to a luciferase (firefly) reporter gene, exposed to TGF-β; assay: Assay 1 (Cellular Transcriptional Assay): TGF-β induced PAI-1 promoter luciferase reporter; conditions: Homo sapiens, HepG2, read-out: TGF-β cellular activity (IC50)
readoutLabel: pIC50
Answer as the number alone; pIC50 is minus log10 of concentration in mol/L.

Tell me the measured pIC50 of CCN1C(=O)COc2ccc(-c3sc(N)nc3-c3cccc(C)n3)cc21 , please.
6.98

Query Cc1cccc(-c2nc(N)sc2-c2ccc3ncn(C)c3c2)n1 next
7.96

====

readoutLabel: melting point

Tell me the measured melting point of Cc1cccc(-c2sc(N)nc2-c2ccc3c(c2)OCO3)n1 , please.
170 to 172 °C

Query Cc1cccc(-c2sc(N)nc2-c2ccc3ncoc3c2)n1 next
188 to 190 °C

Query Nc1nc(-c2ccc3ncccc3c2)c(-c2ccccn2)s1 next
226 °C

Query Nc1nc(-c2ccc3c(c2)OCCO3)c(-c2ccccn2)s1 next
214 °C

Query CCN1C(=O)COc2ccc(-c3sc(N)nc3-c3cccc(C)n3)cc21 next
228 to 230 °C

Query Cc1cccc(-c2nc(N)sc2-c2ccc3ncn(C)c3c2)n1 next
244 to 246 °C

Query CCn1cnc2ccc(-c3sc(N)nc3-c3cccc(C)n3)cc21 next
218 to 220 °C

Query COCCn1cnc2ccc(-c3sc(N)nc3-c3cccc(C)n3)cc21 next
200 to 202 °C

Query Cc1cccc(-c2nc(N)sc2-c2ccc3c(c2)N(C)C(=O)CO3)n1 next
240 to 242 °C
